Biological target: 4'-phosphopantetheinyl transferase ffp (Bacillus subtilis)
Test: qHTS Assay for Inhibitors of Bacillus subtilis Sfp phosphopantetheinyl transferase (PPTase);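 note: the enzyme is Sfp with the accession as filed and its product quenches rhodamine fluorescence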;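 for largest response in the series, negative = inhibition: 0% = enzyme reaction without inhibitor and -100% = no enzyme wells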
Conditions: Biochemical Sfp PPTase activity
Screen size: about 310,000 compounds; about 11,000 (3.5%) were called active. Another 4% or so got no clear call; they are omitted. The sample as a whole holds a higher share of actives than the screen did.
As shown below, each of these compounds has a reported largest response in the series, negative = inhibition value.
Provide only the numeric value, understood in %.

Item CC1CN(CCOc2ccccc2[N+](=O)[O-])CC(C)O1 (centres undefined) : provide largest response in the series, negative = inhibition
-26.3

Item CC(=O)Nc1ccc(S(=O)(=O)N2CCC(C(=O)N[C@@H](Cc3ccccc3)C(=O)O)CC2)cc1 : provide largest response in the series, negative = inhibition
27.7

Item CCOC(=O)COn1c(=O)c(-c2ccc(OCC)cc2)[n+]([O-])c2ccccc21 : provide largest response in the series, negative = inhibition
1.13

Item O=C(Nc1sc2c(c1-c1nc3ccccc3[nH]1)CCCC2)C1CC1 : provide largest response in the series, negative = inhibition
11.4

Item COc1ccc2[nH]c(=O)c(CN(Cc3nnnn3CCc3ccccc3)CC3CCCO3)cc2c1 (centres undefined) : provide largest response in the series, negative = inhibition
0.899

Item CCOC(=O)c1c(C)nc(-c2ccccc2)nc1NC(=O)C(C)C : provide largest response in the series, negative = inhibition
-3.48

Item CN1CCN(CCCCOc2cccc3ccccc23)CC1 : provide largest response in the series, negative = inhibition
4.87

Item COc1ccc2cc1Oc1ccc(cc1)C[C@H]1c3cc(c(OC)cc3CCN1C)Oc1c(O)c(OC)cc3c1[C@H](C2)N(C)CC3 : provide largest response in the series, negative = inhibition
1.93

Item Cc1nonc1NC(=O)c1oc2ccccc2c1C : provide largest response in the series, negative = inhibition
-2.27

Item CCc1c(C)nc(N)n2c(SCC(=O)NC3CCCCC3)nnc12 : provide largest response in the series, negative = inhibition
11.3

New cases:
Item CC(CCc1ccccc1)NC(=O)c1cnc(Cl)c(Cl)c1 (centres undefined) : provide largest response in the series, negative = inhibition
8.93

Item O=C(CN(C(=O)c1csnn1)c1cccc(Cl)c1)NC1CCCC1 : provide largest response in the series, negative = inhibition
5.89

Item CCCN1CCC(=O)N(C(CSc2ccc(OC)cc2)Cc2ccccc2)CC1 (centres undefined) : provide largest response in the series, negative = inhibition
-7.33

Item CCOC(=O)C1CCN(C(=O)C2CCCN(S(=O)(=O)c3ccc(OC)c(Cl)c3)C2)CC1 (centres undefined) : provide largest response in the series, negative = inhibition
3.96

Item COc1ccc(C(=O)NC2CC(C)(C)NC(C)(C)C2)cc1OC : provide largest response in the series, negative = inhibition
0.887

---

Target: 4'-phosphopantetheinyl transferase ffp (Bacillus subtilis)
Assay: qHTS Assay for Inhibitors of Bacillus subtilis Sfp phosphopantetheinyl transferase (PPTase); note: potency is the fitted concentration of half-maximal effect;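 note: the enzyme is Sfp with the accession as filed and its product quenches rhodamine fluorescence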
Conditions: Biochemical Sfp PPTase activity
From the text: Assay Submitter: Michael Burkart, University of California, San Diego Screening Center PI: Austin, C.P. Screening Center: NIH Chemical Genomics Center [NCGC] […] In search of small molecule Sfp-PPTase inhibitors, a fluorescence quenching assay was developed for detection of Bacillus subtilis Sfp-PPTase enzymatic activity in a miniaturized high-throughput format. […]
Among all 310,000 compounds or so, about 11,000 (3.5%) were called active. About 4% were inconclusive and are not listed. Many of the other results were omitted from the sample, so actives are more common in it than they were.
As shown below, each of these molecules has a reported Potency value.

Item COc1ccccc1C(=O)NN1C(=O)C2C3C=CC(O3)C2C1=O (stereo not given) : provide Potency
56.2 µM (active)

Item Cc1ccc(/C=C(\C#N)C(=O)Nc2cccc3ncccc23)o1 : provide Potency
8.91 µM (active)

Item O=C(Nc1ccc(S(=O)(=O)N2CCOCC2)cc1)c1ccc2ncsc2c1 : provide Potency
50.1 µM (active)

Item COCCNC(=S)Nc1cc(S(=O)(=O)N2CCOCC2)ccc1N1CCCCC1 : provide Potency
1 µM (active)

Item Cc1ccc(OCc2nnc(SC3CCc4ccccc4C3=O)n2C)cc1 (stereo not given) : provide Potency
25.1 µM (active)
